test: Chemical (pH) stability in solution; assay type: physicochemical; settings: buffer, pH 1.2, Half-life (Hours), solution stability
observed.property: half-life at 100 μM (min)

O=C(O)[C@H]1/C(=C/CO)O[C@@H]2CC(=O)N21 [Clavulanate, lithium clavulanate] | 36

----------
test: Chemical (pH) stability in solution; type: physicochemical; conditions: buffer, pH 2.5, Half-life (Hours), solution stability
observed.property: half-life at 100 μM (min)

O=C(O)[C@H]1/C(=C/CO)O[C@@H]2CC(=O)N21 [Clavulanate, lithium clavulanate] | 54

----------
assay: Chemical (pH) stability in solution; format: physicochemical; details: pH buffer, pH 4, pH 4.0; 37° C.; 100 μM; read-out: Half-life (Hours), solution stability
observed.property: half-life at 100 μM

CC1(C)[C@H](C(=O)[O-])N2C(=O)[C@@H](CO)[C@H]2S1(=O)=O.[Na+] | > 24 h

----------
test: Chemical (pH) stability in solution; type: physicochemical; details: pH buffer, pH 4, pH 4.0; 25° C.; 100 μM; read-out: Half-life (Hours), solution stability
observed.property: half-life at 100 μM

CC1(C)[C@H](C(=O)[O-])N2C(=O)[C@@H](CO)[C@H]2S1(=O)=O.[Na+] | > 24 h

----------
Assay: Chemical (pH) stability in solution
Assay type: physicochemical
Conditions: buffer, pH 7.4, Half-life (Hours), solution stability
Protocol: Buffers were appropriately formulated to achieve the desired pH of each incubation. […] The temperature of the incubation was regulated with a 96-well heat block. Incubations were performed at 25° C. and 37° C. […] An apparent first-order half-life could then be estimated as ln 2/kd.
observed.property: half-life at 100 μM

O=C(O)[C@H]1/C(=C/CO)O[C@@H]2CC(=O)N21 [Clavulanate, lithium clavulanate] | > 24 h

----------
assay: Chemical (pH) stability in solution; assay type: physicochemical; details: pH buffer, pH 2.5, pH 2.5; 25° C.; 100 μM; read-out: Half-life (Hours), solution stability
observed.property: half-life at 100 μM

CC1(C)[C@H](C(=O)[O-])N2C(=O)[C@@H](CO)[C@H]2S1(=O)=O.[Na+] | > 24 h

----------
Assay: in vitro
Settings: monkey, plasma
Method: The incubation consisted of 990 μl of plasma preincubated for 5 minutes at 37° C. in a 96-well heat block. The incubation was initiated with the addition of 10 μl of a 10 mM stock of compound in 100% methanol. Serial aliquots (100 μl) were removed and transferred to 200 μl of 75/25 acetonitrile/3% perchloric acid at 0, 1, 2, 5, 10, 20, 30, and 60 minutes. […] The peak response at each time point was expressed as a percentage of that obtained at time=0. […]
observed.property: half-life at 100 μM (min)

C[C@H](OC(=O)c1ccccc1)OC(=O)[C@@H]1N2C(=O)[C@@H](CO)[C@H]2S(=O)(=O)C1(C)C [Prodrug 3] | 3.6

----------
test: in vitro; details: rat, plasma
observed.property: half-life at 100 μM

C[C@H](OC(=O)c1ccccc1)OC(=O)[C@@H]1N2C(=O)[C@@H](CO)[C@H]2S(=O)(=O)C1(C)C [Prodrug 3] | < 2 min

----------
Test: in vitro
Conditions: human, plasma
Procedure: The incubation consisted of 990 μl of plasma preincubated for 5 minutes at 37° C. in a 96-well heat block. The incubation was initiated with the addition of 10 μl of a 10 mM stock of compound in 100% methanol. Serial aliquots (100 μl) were removed and transferred to 200 μl of 75/25 acetonitrile/3% perchloric acid at 0, 1, 2, 5, 10, 20, 30, and 60 minutes. […] The peak response at each time point was expressed as a percentage of that obtained at time=0. […]
observed.property: half-life at 100 μM

C[C@H](OC(=O)c1ccccc1)OC(=O)[C@@H]1N2C(=O)[C@@H](CO)[C@H]2S(=O)(=O)C1(C)C [Prodrug 3] | < 2 min

----------
experiment: Chemical (pH) stability in solution; assay type: physicochemical; conditions: pH buffer, pH 6.5, pH 6.5; 25° C.; 100 μM; read-out: Half-life (Hours), solution stability
observed.property: half-life at 100 μM

CC1(C)[C@H](C(=O)[O-])N2C(=O)[C@@H](CO)[C@H]2S1(=O)=O.[Na+] | > 24 h

----------
assay: in vitro; conditions: mouse, plasma
observed.property: half-life at 100 μM

C[C@H](OC(=O)c1ccccc1)OC(=O)[C@@H]1N2C(=O)[C@@H](CO)[C@H]2S(=O)(=O)C1(C)C [Prodrug 3] | 2.8 min

----------
target: E. coli TEM-1 beta-lactamase (Escherichia coli, UniProt P62593); test: Beta-lactamase inhibitory activity at intestinal pH values; type: biochemical; details: pH 7.0
Sequence (P62593 24-286 limits assumed): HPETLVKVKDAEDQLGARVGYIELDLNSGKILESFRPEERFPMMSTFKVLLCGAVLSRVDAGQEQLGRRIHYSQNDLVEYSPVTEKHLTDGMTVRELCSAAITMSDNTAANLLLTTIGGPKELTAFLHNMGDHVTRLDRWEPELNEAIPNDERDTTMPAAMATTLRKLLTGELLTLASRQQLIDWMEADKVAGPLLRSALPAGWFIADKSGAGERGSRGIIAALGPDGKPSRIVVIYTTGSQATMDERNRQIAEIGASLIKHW
observed.property: IC50 (µM)

C[C@H](OC(=O)c1ccccc1)OC(=O)[C@@H]1N2C(=O)[C@@H](CO)[C@H]2S(=O)(=O)C1(C)C [Prodrug 3] | 2.2

----------
experiment: Chemical (pH) stability in solution; assay type: physicochemical; details: pH buffer, pH 2.5, pH 2.5; 37° C.; 100 μM; read-out: Half-life (Hours), solution stability
observed.property: half-life at 100 μM

CC1(C)[C@H](C(=O)[O-])N2C(=O)[C@@H](CO)[C@H]2S1(=O)=O.[Na+] [Na-HMPAS] | > 24 h

Recorded values, source patent US7091197B2.
